# System: NCI/ADR-RES ovarian
# protocol: NCI-60 one-dose screen, 48 h (100 = growth as untreated, 0 = no growth, -100 = all killed)
# run-conditions: 10 µM unless noted
The panel holds about 83,000 compounds, 20% with a hit somewhere; the sample as a whole holds those more often.
quantity-kind: growth (%)
Answer format: numeric, % implied, no suffix.

[
  {
    "compound": "Cc1ccc(NC(=O)c2ccc(CN3CCN(C)CC3)c(I)c2)cc1Oc1ccc(-c2[nH]nc3ncnc(N)c23)cc1",
    "display-unit": "%",
    "growth": 44.5
  },
  {
    "compound": "CCOC(=O)/C=c1\\sc2n(c1=O)C1C(NN=2)N(CC)C(=O)N1CC (stereo not given)",
    "display-unit": "%",
    "growth": 53.1
  }
]

Find the recorded growth belonging to CCNC(=O)Oc1ccc(/C(=C(/C)c2ccc(Cl)cc2)c2ccc(OCCN(C)C)cc2)cc1 and report it.
74.9

What do you get for C#C[C@]1(O)CC[C@H]2[C@@H]3CC=C4c5sc(Nc6cccc(C)n6)nc5CC[C@]4(C)[C@H]3CC[C@@]21C ?
38.5

Again, but for O=C(NNc1nc2cc(F)cc(F)c2n2cccc12)c1ccncn1
1.44
